Target: human IL-21R expressed on cells (human, UniProt Q9HBE5 20-538)
Sequence (Q9HBE5 20-538 limits assumed): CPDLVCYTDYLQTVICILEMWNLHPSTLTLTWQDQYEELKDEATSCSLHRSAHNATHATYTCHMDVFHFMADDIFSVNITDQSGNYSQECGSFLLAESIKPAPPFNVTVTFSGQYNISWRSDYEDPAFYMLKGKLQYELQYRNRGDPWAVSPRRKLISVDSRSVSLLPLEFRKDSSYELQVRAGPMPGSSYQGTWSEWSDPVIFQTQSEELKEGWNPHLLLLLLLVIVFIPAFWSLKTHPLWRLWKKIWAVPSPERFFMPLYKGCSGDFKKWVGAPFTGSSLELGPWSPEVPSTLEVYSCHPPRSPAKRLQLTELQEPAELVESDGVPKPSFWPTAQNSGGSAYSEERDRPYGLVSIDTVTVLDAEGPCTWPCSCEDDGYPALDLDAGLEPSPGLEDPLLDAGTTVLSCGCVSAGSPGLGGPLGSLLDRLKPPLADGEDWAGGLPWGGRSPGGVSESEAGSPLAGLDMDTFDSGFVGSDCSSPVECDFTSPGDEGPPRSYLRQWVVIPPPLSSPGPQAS
Assay: cell-based or functional assay
MEASURED_PARAMETER: Human IL-21R-TF1 Proliferation IC50 (nM)
Provide the reading as a plain figure in nM.

Completed entries (count: 2):
AbC (antibody, IgG1, V domains shown, As for AbA: IgG1/lambda, CDR3 graft, residue limits derived; also called VHP/VL11) VH: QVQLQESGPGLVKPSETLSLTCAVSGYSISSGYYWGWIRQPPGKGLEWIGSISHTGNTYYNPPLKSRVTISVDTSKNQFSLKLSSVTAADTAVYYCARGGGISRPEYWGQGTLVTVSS VL: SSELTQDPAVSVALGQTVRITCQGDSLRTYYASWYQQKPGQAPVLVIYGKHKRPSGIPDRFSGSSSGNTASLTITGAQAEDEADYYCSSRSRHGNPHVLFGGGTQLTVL :: 3.36
AbK (antibody, IgG1, V domains shown, As for AbA: IgG1/lambda, CDR3 graft, residue limits derived; also called VH3/VL3) VH: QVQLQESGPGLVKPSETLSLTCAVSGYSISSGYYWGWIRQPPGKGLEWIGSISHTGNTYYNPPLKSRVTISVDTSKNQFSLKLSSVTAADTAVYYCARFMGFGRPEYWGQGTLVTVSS VL: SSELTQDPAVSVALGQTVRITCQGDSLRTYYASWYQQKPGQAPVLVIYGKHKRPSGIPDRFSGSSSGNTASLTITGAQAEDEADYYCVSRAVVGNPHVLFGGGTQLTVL :: 4

Here is another binder to look at.
Q: Returns the measured Human IL-21R-TF1 Proliferation IC50 for the input binder. Input: AbN (antibody, IgG1, V domains shown, As for AbA: IgG1/lambda, CDR3 graft, residue limits derived; also called VH6/VL24) VH: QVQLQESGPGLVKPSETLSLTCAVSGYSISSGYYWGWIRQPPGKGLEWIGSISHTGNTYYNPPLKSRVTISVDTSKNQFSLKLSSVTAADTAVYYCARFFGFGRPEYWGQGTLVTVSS VL: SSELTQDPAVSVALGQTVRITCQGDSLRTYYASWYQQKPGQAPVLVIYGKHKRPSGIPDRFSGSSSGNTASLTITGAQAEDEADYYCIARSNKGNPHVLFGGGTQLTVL
A: 1.59

FYI, the data here is from patent US20120276102A1.
